Just for reference, patent US20120231972A1 is where these values come from.

Assay: physchem
Format: physicochemical
Conditions: water
Readout type: solubility

Lab note: measured solubility of CC[N+]1=C(/C=C/C=C2/N(CCCCCC(=O)N[C@H](Cc3c[nH]cn3)C(=O)O)c3ccc(S(=O)(=O)[O-])cc3C2(C)C)C(C)(C)c2cc(S(=O)(=O)NCCCC(=O)OCCN(C)C)ccc21 [compound (E)] was ~240 mM
